- System: HT-29
- ASSAY_REMARKS: NCI tumour cell line growth inhibition, 48 h
Activity calls are given as the source filed them. Cut-off read from the data, not from the text of the source: active = GI50 up to about 1.1 µM and inactive = higher.
Outcomes: T for active, F for inactive

- MOLECULE: "COC(=O)CSc1[nH]c2nc(C)nc(Nc3ccccc3)c2c1C#N"
  TESTED_SYSTEM: "HT-29"
  DISCRETE_LABEL: "F"
- MOLECULE: "CC[C@@]1(OP(=O)(O)O)C(=O)OCc2c1cc1n(c2=O)Cc2cc3ccccc3nc2-1"
  TESTED_SYSTEM: "HT-29"
  DISCRETE_LABEL: "T"
- MOLECULE: "Nc1cc2c3c(cccc3c1)NC2=O"
  TESTED_SYSTEM: "HT-29"
  DISCRETE_LABEL: "F"
- MOLECULE: "CSc1s[s+]c(SC)c1-c1ccccc1"
  TESTED_SYSTEM: "HT-29"
  DISCRETE_LABEL: "F"
- MOLECULE: "O=C(/C=C/c1ccc([N+](=O)[O-])cc1)c1ccc(NCc2nc3ccccc3[nH]2)cc1"
  TESTED_SYSTEM: "HT-29"
  DISCRETE_LABEL: "F"
- MOLECULE: "CCOP(=O)(O)C(Nc1ccc(/N=N/c2ccccc2)cc1)c1ccc(C(Nc2ccc(/N=N/c3ccccc3)cc2)P(=O)(O)OCC)cc1 (stereo unspecified)"
  TESTED_SYSTEM: "HT-29"
  DISCRETE_LABEL: "F"
- MOLECULE: "Oc1ccc2ccccc2c1/N=N/c1ccsc1"
  TESTED_SYSTEM: "HT-29"
  DISCRETE_LABEL: "F"
- MOLECULE: "O=[N+]([O-])c1ccc(COc2cccc3cccnc23)cc1"
  TESTED_SYSTEM: "HT-29"
  DISCRETE_LABEL: "F"
- MOLECULE: "NS(=O)(=O)c1ccc(CNc2nc(-c3cccs3)nc3ccc(I)cc23)cc1"
  TESTED_SYSTEM: "HT-29"
  DISCRETE_LABEL: "F"
- MOLECULE: "CCc1nc(N)nc(N)c1-c1ccc(Cl)c([N+]#N)c1"
  TESTED_SYSTEM: "HT-29"
  DISCRETE_LABEL: "F"
- MOLECULE: "c1ccc(/N=C2\\C(=N/c3ccccc3)N(C3CCCCC3)/C(=N\\C3CCCCC3)N2c2ccccc2)cc1"
  TESTED_SYSTEM: "HT-29"
  DISCRETE_LABEL: "F"
- MOLECULE: "CNC(=O)CCNC(=O)CCC(=O)N(C)C"
  TESTED_SYSTEM: "HT-29"
  DISCRETE_LABEL: "F"
- MOLECULE: "O=C(n1c2ccccc2c2nnc(S)nc21)C(F)(F)F"
  TESTED_SYSTEM: "HT-29"
  DISCRETE_LABEL: "F"
- MOLECULE: "COc1cccc(/C=N/[N-]C(=S)Nc2ccccc2)c1[O-].O.[Zn+2]"
  TESTED_SYSTEM: "HT-29"
  DISCRETE_LABEL: "F"
- MOLECULE: "Cc1c(NC(=O)c2cc([N+](=O)[O-])cc([N+](=O)[O-])c2)c(=O)n(-c2ccccc2)n1C"
  TESTED_SYSTEM: "HT-29"
  DISCRETE_LABEL: "F"
- MOLECULE: "COC(=O)C(Cc1cn(C(C)n2cc(CC(NC(C)=O)C(=O)OC)c3ccccc32)c2ccccc12)NC(C)=O (stereo unspecified)"
  TESTED_SYSTEM: "HT-29"
  DISCRETE_LABEL: "F"
- MOLECULE: "Cc1ccc(Cc2n[nH]c(=O)n2N2C(=O)c3ccccc3C2=O)cc1"
  TESTED_SYSTEM: "HT-29"
  DISCRETE_LABEL: "F"
- MOLECULE: "N#CCCC(CC#N)N1CCN(CCO)CC1 (stereo unspecified)"
  TESTED_SYSTEM: "HT-29"
  DISCRETE_LABEL: "F"
- MOLECULE: "Nc1ncnc2c1ncn2[C@@H]1O[C@H](COC(c2ccccc2)(c2ccccc2)c2ccccc2)[C@@H](OC(=S)Oc2ccccc2)[C@@H]1F"
  TESTED_SYSTEM: "HT-29"
  DISCRETE_LABEL: "F"
- MOLECULE: "COC(=O)C1c2c(c3ccccc3n2C(=O)OC)CCN2CCC1C(S(=O)(=O)c1ccccc1)C2=O (stereo unspecified)"
  TESTED_SYSTEM: "HT-29"
  DISCRETE_LABEL: "F"
- MOLECULE: "O=c1cc(CO)oc2c3c(cc(O)c12)OCC(COC1OC(CO)C(O)C(O)C1O)=CC3 (stereo unspecified)"
  TESTED_SYSTEM: "HT-29"
  DISCRETE_LABEL: "F"
